# targetEntity: DNA polymerase III PolC-type (Bacillus subtilis (strain 168)) (UniProt P13267)
# Sequence (P13267 whole entry, looked up): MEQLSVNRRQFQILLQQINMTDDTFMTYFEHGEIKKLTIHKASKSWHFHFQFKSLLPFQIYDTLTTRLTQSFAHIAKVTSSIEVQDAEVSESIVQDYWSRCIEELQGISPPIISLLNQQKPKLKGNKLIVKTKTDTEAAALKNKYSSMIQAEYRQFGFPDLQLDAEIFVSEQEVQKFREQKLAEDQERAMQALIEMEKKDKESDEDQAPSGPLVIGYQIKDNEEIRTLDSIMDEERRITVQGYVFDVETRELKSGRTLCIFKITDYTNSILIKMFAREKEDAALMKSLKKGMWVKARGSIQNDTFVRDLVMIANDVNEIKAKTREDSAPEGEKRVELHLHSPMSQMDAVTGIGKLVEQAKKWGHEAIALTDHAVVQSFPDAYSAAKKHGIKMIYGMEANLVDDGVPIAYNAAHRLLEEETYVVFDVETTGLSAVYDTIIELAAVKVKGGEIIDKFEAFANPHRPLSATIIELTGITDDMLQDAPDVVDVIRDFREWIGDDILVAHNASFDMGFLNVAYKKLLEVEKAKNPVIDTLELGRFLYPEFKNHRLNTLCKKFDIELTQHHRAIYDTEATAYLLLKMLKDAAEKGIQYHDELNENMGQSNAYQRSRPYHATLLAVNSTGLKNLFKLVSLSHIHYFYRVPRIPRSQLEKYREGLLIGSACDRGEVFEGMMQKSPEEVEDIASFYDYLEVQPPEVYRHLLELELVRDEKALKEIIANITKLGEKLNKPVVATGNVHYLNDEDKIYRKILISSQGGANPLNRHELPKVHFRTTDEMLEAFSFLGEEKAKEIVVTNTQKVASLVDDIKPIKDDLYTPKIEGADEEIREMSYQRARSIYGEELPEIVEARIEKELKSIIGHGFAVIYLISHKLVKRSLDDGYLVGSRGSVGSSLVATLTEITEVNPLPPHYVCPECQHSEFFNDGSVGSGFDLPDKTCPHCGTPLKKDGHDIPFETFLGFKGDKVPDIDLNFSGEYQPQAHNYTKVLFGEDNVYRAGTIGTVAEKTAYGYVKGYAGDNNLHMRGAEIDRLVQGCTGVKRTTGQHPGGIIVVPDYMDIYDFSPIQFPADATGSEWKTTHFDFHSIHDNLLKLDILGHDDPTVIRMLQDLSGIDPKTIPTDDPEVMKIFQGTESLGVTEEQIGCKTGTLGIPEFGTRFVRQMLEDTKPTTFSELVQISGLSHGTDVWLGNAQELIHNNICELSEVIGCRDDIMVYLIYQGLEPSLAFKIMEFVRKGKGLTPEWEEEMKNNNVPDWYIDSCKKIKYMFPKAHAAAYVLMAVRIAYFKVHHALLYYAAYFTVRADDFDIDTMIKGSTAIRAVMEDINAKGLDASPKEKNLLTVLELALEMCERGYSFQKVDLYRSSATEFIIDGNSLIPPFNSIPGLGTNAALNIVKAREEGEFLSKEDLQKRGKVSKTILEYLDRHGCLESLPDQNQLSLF
# protocolDetails: qHTS Validation Assay for the Inhibitors of DNA Replication in Gram-Positive Bacteria (AID 485295);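 further: reconstituted holoenzyme with PolC plus beta clamp SSB and primase; PicoGreen fluorescence of double-stranded DNA made on primed circular M13 template; 0% = DMSO wells and -100% = EDTA-quenched background wells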
# appliedConditions: Gram-positive bacterial DNA replication assay; series mostly up to 57.1 µM
Activity calls are given as the source filed them. The call rests on the fitted dose curve; in most records, active means well fitted inhibition curve with a large enough effect; inconclusive means small, poorly fitted or top-dose-only effect; inactive means flat fitted curve, though single readings scatter.

[
  {
    "molecule": "CCCCCC(O)c1cccc(OCc2ccc3ccccc3n2)c1 (stereo unspecified)",
    "targetEntity": "DNA polymerase III PolC-type (Bacillus subtilis (strain 168)) (UniProt P13267)",
    "outcome": "inactive"
  },
  {
    "molecule": "O=C(c1ccc(OCCCc2cnc[nH]2)cc1)C1CC1",
    "targetEntity": "DNA polymerase III PolC-type (Bacillus subtilis (strain 168)) (UniProt P13267)",
    "outcome": "inactive"
  },
  {
    "molecule": "NCCCCC(=O)O",
    "targetEntity": "DNA polymerase III PolC-type (Bacillus subtilis (strain 168)) (UniProt P13267)",
    "outcome": "inactive"
  },
  {
    "molecule": "Nc1ncnc2c1ncn2[C@@H]1O[C@H](COP(=O)(O)OP(=O)(O)OP(=O)(O)OP(=O)(O)OC[C@@H]2O[C@H](n3cnc4c(N)ncnc43)[C@@H](O)[C@H]2O)[C@@H](O)[C@H]1O",
    "targetEntity": "DNA polymerase III PolC-type (Bacillus subtilis (strain 168)) (UniProt P13267)",
    "outcome": "inactive"
  },
  {
    "molecule": "COc1ccccc1CNCCCCCCNCCCCCCCCNCCCCCCNCc1ccccc1OC",
    "targetEntity": "DNA polymerase III PolC-type (Bacillus subtilis (strain 168)) (UniProt P13267)",
    "outcome": "inactive"
  },
  {
    "molecule": "CN1[C@@H](CC(=O)c2ccccc2)CCC[C@H]1C[C@H](O)c1ccccc1",
    "targetEntity": "DNA polymerase III PolC-type (Bacillus subtilis (strain 168)) (UniProt P13267)",
    "outcome": "inactive"
  },
  {
    "molecule": "Fc1ccc(C(OCCCc2cnc[nH]2)c2ccc(F)cc2)cc1",
    "targetEntity": "DNA polymerase III PolC-type (Bacillus subtilis (strain 168)) (UniProt P13267)",
    "outcome": "inactive"
  },
  {
    "molecule": "CSc1ccccc1N1CCN(CCCCCC(=O)NC2CCCc3ccccc32)CC1 (stereo unspecified)",
    "targetEntity": "DNA polymerase III PolC-type (Bacillus subtilis (strain 168)) (UniProt P13267)",
    "outcome": "inactive"
  },
  {
    "molecule": "O=C(O)/C=C/C(O)c1ccc(Cl)cc1 (stereo unspecified)",
    "targetEntity": "DNA polymerase III PolC-type (Bacillus subtilis (strain 168)) (UniProt P13267)",
    "outcome": "inactive"
  },
  {
    "molecule": "O=C(O)CC1CCCc2ccccc2C1O (stereo unspecified)",
    "targetEntity": "DNA polymerase III PolC-type (Bacillus subtilis (strain 168)) (UniProt P13267)",
    "outcome": "inactive"
  },
  {
    "molecule": "NC(CCCP(=O)(O)O)C(=O)O (stereo unspecified)",
    "targetEntity": "DNA polymerase III PolC-type (Bacillus subtilis (strain 168)) (UniProt P13267)",
    "outcome": "inactive"
  }
]

====

# protocolDetails: Cell Viability - LYMP2-016 (AID 984);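 further: cells exposed to compound for 24 hours at 37 °C; nearly all actives have a fitted effect of over 55% in size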; further: potency means the concentration at half of the fitted maximal effect
# appliedConditions: LYMP2-016 lymphoblastoid cell viability, qHTS; series mostly up to 92.2 µM
Inconclusive results are not listed. Activity calls are given as the source filed them. Calls come from the whole dose curve; as a rule, active = well fitted cell-killing curve with a large enough effect; inconclusive = small, poorly fitted or top-dose-only effect; inactive = flat fitted curve, though single readings scatter.
observedProperty: Potency

[
  {
    "molecule": "CC1(C)S[C@@H]2[C@H](NC(=O)[C@H](N)c3ccccc3)C(=O)N2[C@H]1C(=O)O",
    "observedProperty": "Potency",
    "result": "inactive"
  },
  {
    "molecule": "CN(C)c1ccc(C(=C2C=CC(=[N+](C)C)C=C2)c2ccccc2)cc1",
    "observedProperty": "Potency",
    "result": "0.501 µM (active)"
  },
  {
    "molecule": "S=c1[nH]c2ccccc2s1",
    "observedProperty": "Potency",
    "result": "inactive"
  },
  {
    "molecule": "CN(C)c1ccc(N=NS(=O)(=O)O)cc1",
    "observedProperty": "Potency",
    "result": "inactive"
  },
  {
    "molecule": "Nc1ccc([N+](=O)[O-])cc1O",
    "observedProperty": "Potency",
    "result": "inactive"
  },
  {
    "molecule": "NCCO",
    "observedProperty": "Potency",
    "result": "inactive"
  },
  {
    "molecule": "C#C[C@]1(O)CC[C@H]2[C@@H]3CCc4cc(O)ccc4[C@H]3CC[C@@]21C",
    "observedProperty": "Potency",
    "result": "inactive"
  },
  {
    "molecule": "N=C1N=C(N)c2cc3ccccc3cc21",
    "observedProperty": "Potency",
    "result": "39.8 µM (active)"
  },
  {
    "molecule": "Oc1ccccc1O",
    "observedProperty": "Potency",
    "result": "inactive"
  },
  {
    "molecule": "COc1cc(/C=C/C(=O)CC(=O)/C=C/c2ccc(O)c(OC)c2)ccc1O",
    "observedProperty": "Potency",
    "result": "39.8 µM (active)"
  },
  {
    "molecule": "CC(C)NCC(O)COc1cccc2ccccc12 (stereo not given)",
    "observedProperty": "Potency",
    "result": "inactive"
  },
  {
    "molecule": "Nc1nc2ccc([N+](=O)[O-])cc2s1",
    "observedProperty": "Potency",
    "result": "inactive"
  },
  {
    "molecule": "O=C(O)/C=C\\C(=O)O",
    "observedProperty": "Potency",
    "result": "inactive"
  },
  {
    "molecule": "CN(C)CCC(c1ccc(Cl)cc1)c1ccccn1 (stereo not given)",
    "observedProperty": "Potency",
    "result": "inactive"
  },
  {
    "molecule": "c1ccc2sc(SSc3nc4ccccc4s3)nc2c1",
    "observedProperty": "Potency",
    "result": "inactive"
  }
]

====

Each entry below lists one item and its recorded activity, negative = cell killing value.
# protocolDetails: Drug repurposing screens with cells derived from glioblastoma tumor samples (AID 1345199); further: on the % scale 0 is the no-effect control and ±100 the full control effect; nearly all actives have a fitted effect of over 40% in size
# appliedConditions: GBM patient neurospheres viability, ATP luminescence, 48 h; at 21.2 µM (top of the series); tumour line B
Results filed as inconclusive are left out.

[
  {
    "compound": "CC(C(=O)O)c1ccc(C(=O)c2ccccc2)s1 (stereo unspecified)",
    "activity, negative = cell killing [%]": -9.92
  },
  {
    "compound": "O=C(O)Cc1ccc(-c2ccccc2)cc1",
    "activity, negative = cell killing [%]": -5.31
  },
  {
    "compound": "Cc1c(Nc2ncccc2C(=O)O)cccc1C(F)(F)F",
    "activity, negative = cell killing [%]": -18.2
  },
  {
    "compound": "Cc1c(N)c(=O)n(-c2ccccc2)n1C",
    "activity, negative = cell killing [%]": -6
  },
  {
    "compound": "CCCCC[C@H](O)/C=C/[C@@H]1[C@@H](C/C=C\\CCCC(=O)O)[C@@H](O)C[C@H]1O",
    "activity, negative = cell killing [%]": 0.321
  },
  {
    "compound": "CC(C(=O)O)c1ccc(C(=O)c2cccs2)cc1 (stereo unspecified)",
    "activity, negative = cell killing [%]": -14.5
  }
]

====

# Tested on: CP215
# protocolDetails: qHTS profiling for inhibitors of Plasmodium falciparum proliferation (AID 504749); further: nearly all actives have a fitted effect of over 60% in size
# appliedConditions: P. falciparum in erythrocytes, SYBR Green DNA, 72 h; series mostly up to 28.7 µM
Inconclusive results are not listed. Activity calls are given as the source filed them. Calls come from the whole dose curve; as a rule, active = well fitted inhibition curve with a large enough effect; inconclusive = small, poorly fitted or top-dose-only effect; inactive = flat fitted curve, though single readings scatter. Where a SMILES comes first, the peptide text is derived from it. [ ]: non-standard residue; d: D form. pGlu = O=C1CC[C@@H](C(=O)O)N1; Thz = O=C(O)[C@@H]1CSCN1
Outcomes: T = active, F = inactive

[
  {
    "molecule": "O=C(O)c1cc(O)c(O)c(O)c1",
    "assignedCategory": "F"
  },
  {
    "molecule": "CCCC(=O)OC[C@@H](OC(=O)CCC)[C@@H](OC(=O)CCC)[C@H](Cn1c2nc(=O)[nH]c(=O)c-2nc2cc(C)c(C)cc21)OC(=O)CCC",
    "assignedCategory": "F"
  },
  {
    "molecule": "CC1(C)[C@@H](O)CC[C@]2(C)[C@H]3C(=O)C=C4[C@@H]5C[C@@](C)(C(=O)O)CC[C@]5(C)CC[C@@]4(C)[C@]3(C)CC[C@@H]12",
    "assignedCategory": "F"
  },
  {
    "molecule": "CC(=O)[C@]1(O)Cc2c(O)c3c(c(O)c2[C@@H](O[C@H]2C[C@H](N)[C@H](O)[C@H](C)O2)C1)C(=O)c1c(O)cccc1C3=O",
    "assignedCategory": "T"
  },
  {
    "molecule": "Nc1ccc(O)c(C(=O)O)c1",
    "assignedCategory": "F"
  },
  {
    "molecule": "O=C(CCN1CCN(CCO)CC1)N1c2ccccc2Sc2ccc(C(F)(F)F)cc21",
    "assignedCategory": "F"
  },
  {
    "molecule": "O=C(O)[C@H](O)[C@@H](O)[C@H](O)[C@H](O)CO",
    "assignedCategory": "F"
  },
  {
    "molecule": "Clc1ccccc1-c1nc(-c2ccncc2)no1",
    "assignedCategory": "F"
  },
  {
    "molecule": "C=CCCCCCCCCC(=O)O",
    "assignedCategory": "F"
  },
  {
    "molecule": "C[S+](CC[C@H](N)C(=O)O)C[C@H]1O[C@@H](n2cnc3c(N)ncnc32)[C@H](O)[C@@H]1O (some centres undefined)",
    "assignedCategory": "F"
  },
  {
    "molecule": "CCCCCC[C@@H](O)C/C=C\\CCCCCCCC(=O)O",
    "assignedCategory": "F"
  },
  {
    "molecule": "CCCCCCCCCCCCCCCCCC(=O)O",
    "assignedCategory": "F"
  },
  {
    "molecule": "CCCCC[C@H](O)/C=C/[C@@H]1[C@@H](C/C=C\\CCCC(=O)O)[C@@H](O)C[C@H]1O",
    "assignedCategory": "F"
  },
  {
    "molecule": "O=C1CC[C@@H](C(=O)N2CSC[C@H]2C(=O)O)N1 ([pGlu]-[Thz]-OH)",
    "assignedCategory": "F"
  },
  {
    "molecule": "CCOC(=O)c1ccccc1O",
    "assignedCategory": "F"
  },
  {
    "molecule": "CN1[C@@H]2CC[C@H]1CC(OC(=O)C(CO)c1ccccc1)C2 (some centres undefined)",
    "assignedCategory": "F"
  },
  {
    "molecule": "CCCCCCCCCCCCCCCC(=O)OC(C)C",
    "assignedCategory": "F"
  },
  {
    "molecule": "O=C(Nc1ccc(C(=O)O)c(O)c1)c1ccccc1",
    "assignedCategory": "F"
  },
  {
    "molecule": "Cc1c(Nc2ncccc2C(=O)O)cccc1C(F)(F)F",
    "assignedCategory": "F"
  },
  {
    "molecule": "CN1CCN(c2cc3c(nn2)Oc2ccccc2N3C)CC1",
    "assignedCategory": "F"
  },
  {
    "molecule": "c1ccc2sc(SSc3nc4ccccc4s3)nc2c1",
    "assignedCategory": "F"
  },
  {
    "molecule": "Oc1c(Br)cc(Br)c2cccnc12",
    "assignedCategory": "F"
  },
  {
    "molecule": "CCCCCCCCCCCC(=O)[O][Sn]([CH2]CCC)([CH2]CCC)[O]C(=O)CCCCCCCCCCC",
    "assignedCategory": "F"
  },
  {
    "molecule": "N=c1ccn2c(n1)O[C@H]1[C@H](O)[C@@H](CO)O[C@H]12",
    "assignedCategory": "F"
  },
  {
    "molecule": "Cc1[nH]cnc1CN1CCc2c(c3ccccc3n2C)C1=O",
    "assignedCategory": "F"
  },
  {
    "molecule": "CCOc1ccc2nc(S(N)(=O)=O)sc2c1",
    "assignedCategory": "F"
  },
  {
    "molecule": "CC1(C)C[C@@H]1C(=O)N/C(=C\\CCCCSC[C@H](N)C(=O)O)C(=O)O",
    "assignedCategory": "F"
  },
  {
    "molecule": "CC1OC1P(=O)(O)O (centres undefined)",
    "assignedCategory": "F"
  },
  {
    "molecule": "COc1cc2c3cc1Oc1cc(ccc1O)C[C@@H]1c4c(cc(OC)c(O)c4Oc4ccc(cc4)C[C@@H]3N(C)CC2)CC[N+]1(C)C",
    "assignedCategory": "F"
  },
  {
    "molecule": "CC1(C)S[C@@H]2[C@H](NC(=O)[C@H](NC(=O)N3CCN(S(C)(=O)=O)C3=O)c3ccccc3)C(=O)N2[C@H]1C(=O)O",
    "assignedCategory": "F"
  },
  {
    "molecule": "c1ccc2sc(SN3CCOCC3)nc2c1",
    "assignedCategory": "F"
  },
  {
    "molecule": "CC(C(=O)O)c1ccc2c(c1)[nH]c1ccc(Cl)cc12 (centres undefined)",
    "assignedCategory": "F"
  },
  {
    "molecule": "O=C(OCc1ccccc1)c1ccccc1",
    "assignedCategory": "F"
  },
  {
    "molecule": "C=C(Nc1ccc(OCC)cc1)Nc1ccc(OCC)cc1",
    "assignedCategory": "F"
  }
]
